Each recorded value in this set is attributed to patent US20220177594A1.

Listed binders paired with reported ELISA ratio
system.under.test: Feline_OSMR_hlgG1_Fc (feline)
Sequence (chain, as listed by the source limits assumed, form in doubt): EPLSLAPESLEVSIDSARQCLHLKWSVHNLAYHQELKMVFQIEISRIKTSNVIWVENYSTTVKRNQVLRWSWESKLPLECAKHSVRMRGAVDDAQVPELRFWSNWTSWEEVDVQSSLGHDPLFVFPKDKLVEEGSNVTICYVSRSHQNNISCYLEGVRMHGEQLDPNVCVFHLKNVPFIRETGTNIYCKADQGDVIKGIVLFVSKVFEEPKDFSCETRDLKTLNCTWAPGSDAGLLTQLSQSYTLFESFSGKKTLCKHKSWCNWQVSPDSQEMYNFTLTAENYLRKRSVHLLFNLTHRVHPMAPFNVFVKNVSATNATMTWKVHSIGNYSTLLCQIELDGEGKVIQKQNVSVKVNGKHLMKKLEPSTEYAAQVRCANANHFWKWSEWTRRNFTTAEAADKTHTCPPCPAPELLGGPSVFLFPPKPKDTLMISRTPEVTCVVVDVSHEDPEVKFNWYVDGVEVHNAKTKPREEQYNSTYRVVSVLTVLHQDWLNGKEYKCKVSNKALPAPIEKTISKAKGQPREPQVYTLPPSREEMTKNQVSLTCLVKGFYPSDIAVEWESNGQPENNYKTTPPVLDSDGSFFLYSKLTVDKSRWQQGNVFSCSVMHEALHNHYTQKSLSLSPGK
assay: indirect ELISA, fOSMR coated; OD ratio to antibody expression control
Answer in OD ratio, number only, no unit symbol.

{"binder": "Mu_02D09_VL (SEQ ID NO: 33)_Q27A (antibody, V domains shown) VH: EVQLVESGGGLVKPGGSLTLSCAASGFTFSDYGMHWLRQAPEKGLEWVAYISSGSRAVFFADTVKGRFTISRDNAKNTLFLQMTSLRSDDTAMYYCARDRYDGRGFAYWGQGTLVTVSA VL: DIVLTQSPATLSVTPGDSVSLSCRASASISNNLHWYQQTSHESPRLLITYASQSISGIPSRFSGSGSGTDFTLSINSVETEDFGMYFCQQSNSWPLTFGAGTKLELKR", "measurement.unit": "OD ratio", "ELISA ratio": 0.025}

Which ELISA ratio value is on record for Mu_19F07_VH (SEQ ID NO: 47)_F104A (antibody, V domains shown) VH: EVKLVESEGGLVQPGSSMKLSCTASGFTFSDYYMAWVRQVPEKGLEWVANINYDGSSTYYLDSLKSRFIISRDNAKNILYLQMSSLKSEDTATYYCARGLTWDADVWGTGTTVTVSS VL: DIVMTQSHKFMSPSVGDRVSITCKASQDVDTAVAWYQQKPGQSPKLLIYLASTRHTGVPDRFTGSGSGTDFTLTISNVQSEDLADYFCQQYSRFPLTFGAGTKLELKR ?
0.982

Which ELISA ratio value is on record for Mu_19F07_VH (SEQ ID NO: 47)_Y33A (antibody, V domains shown) VH: EVKLVESEGGLVQPGSSMKLSCTASGFTFSDYAMAWVRQVPEKGLEWVANINYDGSSTYYLDSLKSRFIISRDNAKNILYLQMSSLKSEDTATYYCARGLTWDFDVWGTGTTVTVSS VL: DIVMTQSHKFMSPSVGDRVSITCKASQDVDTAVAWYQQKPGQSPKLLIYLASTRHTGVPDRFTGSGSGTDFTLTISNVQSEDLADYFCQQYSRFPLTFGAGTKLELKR ?
1.06
